Just for reference, paper PMC12167799 is where these values come from.

- SYSTEM NAME: T1, SWSAP1 (hSWS1-SWSAP1, WT);hSWS1 (Homo sapiens;Homo sapiens, UniProt Q6NVH7;Q19AV6 22-250;1-140, |)
- T1 sequence 1: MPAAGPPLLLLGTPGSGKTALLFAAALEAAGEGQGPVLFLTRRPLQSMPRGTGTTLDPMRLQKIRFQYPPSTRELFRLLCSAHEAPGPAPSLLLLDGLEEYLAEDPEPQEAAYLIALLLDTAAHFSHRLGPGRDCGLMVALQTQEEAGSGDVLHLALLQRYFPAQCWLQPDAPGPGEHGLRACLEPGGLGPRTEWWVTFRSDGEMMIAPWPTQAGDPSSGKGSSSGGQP
- T1 sequence 2: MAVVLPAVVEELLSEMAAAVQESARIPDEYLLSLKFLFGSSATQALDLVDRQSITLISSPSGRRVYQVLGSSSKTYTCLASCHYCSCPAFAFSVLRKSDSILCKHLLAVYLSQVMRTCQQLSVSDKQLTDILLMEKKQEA
- EXPERIMENTAL DETAILS: fluorescence polarization; no nucleotide; FPA: 5 nM 6-FAM DNA, 37 C, 2 mM nucleotide where stated (buffer not given in material); EMSA: 0.05 uM 6-FAM DNA, 5%/15% native PAGE; RAD51 filaments: 2 mM ATP
- REPORTED CONDITIONS: protein: recombinant;recombinant; tags: N-terminal 6xHis-TEV, cleaved;none; copies: 1;1; label: 3' 6-FAM on strand 1; 3' overhang 20 nt
MEASURED METRIC: Kd
Answer shape: numeric part, then the unit.

Q: I have this binder here, 3'-overhang (dsDNA) DNA 1: CTTGACAAGCTTGCGCACT DNA 2: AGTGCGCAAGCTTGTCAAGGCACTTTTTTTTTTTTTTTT , and I need its recorded Kd.
Ans: 14.9 µM
